- Test system: HDAC6 human recombinant (Homo sapiens)
- Assay name: Inhibition of HDAC6 activity (fluorimetric assay)
- Particulars: test concentrations 0.1, 1, 10, 100 and 1000 nM; 37° C., 60 minutes
pIC50: −log10 of the molar value.
Quick rule: pIC50 of at least 8 means true (1), below that means false (0).

Study these solved cases before continuing.
Test smiles | Category label
O=C(NO)c1ccc(Cn2ccc3c(N4CCN(Cc5ccccc5F)CC4)ccnc32)cc1 | true (1)
CN1CCN(Cc2cccc(-c3ccnc4c3ccn4Cc3ccc(C(=O)NO)cc3)c2)CC1 | true (1)
CC(C)(O)CN1CCC(c2ccnc3c2ccn3Cc2ccc(C(=O)NO)cc2)CC1 | true (1)
O=C(NO)c1ccc(Cn2ccc3c(C4CCN(Cc5ncccn5)CC4)ccnc32)cc1 | true (1)

Switching to the query record.
Query: Could you verify whether the entry `CC(C)CN1CCN(c2cnc3c(ccn3Cc3ccc(C(=O)NO)cc3)c2)CC1` shows pIC50 of no less than 8?
Result: false (0)

====

- Test system: HDAC6 human recombinant (Homo sapiens, UniProt Q9UBN7)
- Sequence (Q9UBN7 1-1215): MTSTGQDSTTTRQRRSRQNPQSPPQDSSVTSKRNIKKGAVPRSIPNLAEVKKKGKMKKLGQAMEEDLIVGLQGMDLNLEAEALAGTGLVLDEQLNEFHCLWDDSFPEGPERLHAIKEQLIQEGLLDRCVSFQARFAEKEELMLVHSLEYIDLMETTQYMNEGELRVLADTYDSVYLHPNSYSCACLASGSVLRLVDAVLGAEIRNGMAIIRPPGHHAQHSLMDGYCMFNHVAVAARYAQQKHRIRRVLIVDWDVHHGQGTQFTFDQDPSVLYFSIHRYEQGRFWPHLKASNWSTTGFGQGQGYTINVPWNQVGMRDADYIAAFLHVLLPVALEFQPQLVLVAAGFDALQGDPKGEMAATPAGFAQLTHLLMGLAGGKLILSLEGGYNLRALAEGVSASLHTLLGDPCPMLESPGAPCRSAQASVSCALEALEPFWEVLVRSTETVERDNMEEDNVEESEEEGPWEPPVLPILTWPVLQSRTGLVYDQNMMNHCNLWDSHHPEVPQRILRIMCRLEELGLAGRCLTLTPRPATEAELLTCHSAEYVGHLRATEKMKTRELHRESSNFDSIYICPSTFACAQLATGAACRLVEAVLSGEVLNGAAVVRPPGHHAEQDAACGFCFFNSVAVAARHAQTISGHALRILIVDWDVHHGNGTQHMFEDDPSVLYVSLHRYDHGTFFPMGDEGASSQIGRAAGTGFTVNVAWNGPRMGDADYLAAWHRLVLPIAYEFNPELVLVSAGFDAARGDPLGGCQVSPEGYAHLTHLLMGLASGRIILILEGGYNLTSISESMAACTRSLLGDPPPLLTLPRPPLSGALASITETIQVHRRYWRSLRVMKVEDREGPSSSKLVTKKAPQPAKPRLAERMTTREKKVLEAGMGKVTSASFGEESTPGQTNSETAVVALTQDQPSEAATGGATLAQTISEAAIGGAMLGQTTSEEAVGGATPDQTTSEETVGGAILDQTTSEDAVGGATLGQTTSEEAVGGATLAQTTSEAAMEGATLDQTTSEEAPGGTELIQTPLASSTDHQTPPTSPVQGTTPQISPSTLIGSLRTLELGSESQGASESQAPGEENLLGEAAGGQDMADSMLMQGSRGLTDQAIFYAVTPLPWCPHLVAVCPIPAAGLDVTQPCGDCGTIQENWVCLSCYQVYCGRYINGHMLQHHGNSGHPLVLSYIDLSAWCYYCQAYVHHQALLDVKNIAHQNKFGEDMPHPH
- Assay name: Inhibition of HDAC6 activity (fluorimetric assay)
- Particulars: test concentrations 0.1, 1, 10, 100 and 1000 nM; 37° C., 60 minutes
molecules and their reported pIC50
To interpret pIC50, take it as minus log10 of a concentration measured in moles per litre.

Past entries and their recorded results:
Molecule | Recorded metric | Measured number
COc1cccc(CN2CCC(c3cnc4c(ccn4Cc4ccc(C(=O)NO)cc4)c3)CC2)c1 [Compound 842] | pIC50 | 7.85
O=C(NO)c1ccc(Cn2ccc3c(-c4ccncc4)ccnc32)cc1 [Compound 657] | pIC50 | 8.05

Query: Consider the molecule CC(C)(C)CN1CCC(c2ccnc3c2ccn3Cc2ccc(C(=O)NO)cc2)CC1 [Compound 868] and give its measured pIC50.
Result: 7.81
